Measured values drawn from PubChem BioAssay for this set.

Each item that follows carries a reported inhibition.
protocol-summary: growth inhibition, single agents and combos, CRL2098, cell-based, BGB or cisplatin IC20 combos, synergistic combos for chromothripsis tumors (AID 1671454);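 also: cells exposed for 96 h before readout; 0% = vehicle DMSO and 100% = killing by high DMSO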
run-parameters: CRL2098 osteosarcoma cells, drug combinations, measured here: combination with cisplatin at IC20, at 0.5 µM, stronger effect = higher value
Lab book: enter the figure in %, no units written.

Known inhibition results, listed for orientation:
molecule: CC(N)C12CC3CC(CC(C3)C1)C2 (configuration not stated)
inhibition (%): -77.6

molecule: O=C(O)P(=O)(O)O
inhibition (%): -148

molecule: Nc1[nH]c(=O)ncc1F
inhibition (%): -90.3

molecule: Cc1ccnc2c1NC(=O)c1cccnc1N2C1CC1
inhibition (%): -39.8

molecule: O=C(O)CCCCCCCC(=O)O
inhibition (%): -93.4

molecule: Nc1nc2c(ncn2COC(CO)CO)c(=O)[nH]1
inhibition (%): 0.146

molecule: CN(C)c1ccc(C(=C2C=CC(=[N+](C)C)C=C2)c2ccc(N(C)C)cc2)cc1
inhibition (%): 70.6

molecule: CCN1CCN(c2cc3c(cc2F)c(=O)c(C(=O)O)cn3C2CC2)CC1
inhibition (%): -26.8

Can you share its inhibition? I mean this molecule: C[C@H]1COc2c(C3(N)CC3)c(F)cc3c(=O)c(C(=O)O)cn1c23
-41.6

Can you share its inhibition? I mean this molecule: O=NN(CCCl)C(=O)NCCCl
2.1

Can you share its inhibition? I mean this molecule: O=c1oc2c(O)c(O)cc3c(=O)oc4c(O)c(O)cc1c4c23
-39.6

Can you share its inhibition? I mean this molecule: CCn1cc(C(=O)O)c(=O)c2cc3c(cc21)OCO3
-29.3
